details: 333.15 K; 100 kPa; Liquid; Concentric cylinders viscometry
viscosity reference
Express it in mPa·s; write the number only.

Some solved entries appear below for comparison.
MOLECULE	RESULT_VALUE
C=CCn1cc[n+](C)c1.O=S(=O)([N-]S(=O)(=O)C(F)(F)F)C(F)(F)F	11.91
CCCCCCn1cc[n+](C)c1.N#C[B-](C#N)(C#N)C#N [1-hexyl-3-methylimidazolium tetracyanoborate]	12.48
CCn1cc[n+](C)c1.N#C[B-](C#N)(C#N)C#N [1-ethyl-3-methylimidazolium tetracyanoborate]	6.751

Please turn your attention to the following entry.
# molecule CCCC[N+]1(C)CCCC1.O=S(=O)([N-]S(=O)(=O)C(F)(F)F)C(F)(F)F ; its viscosity = 21.53

###

mass density reference
conditions: 313.15 K; 100 kPa; Liquid; Vibrating tube method
Express it in kg/m3; write the number only.

Some solved entries appear below for comparison.
COMPOUND	ATTRIBUTE_MEASURED	UNIT_TAG	RESULT_VALUE
CCCC[N+]1(C)CCCC1.O=S(=O)([N-]S(=O)(=O)C(F)(F)F)C(F)(F)F	mass density	kg/m3	1381
CCn1cc[n+](C)c1.N#C[B-](C#N)(C#N)C#N [1-ethyl-3-methylimidazolium tetracyanoborate]	mass density	kg/m3	1024.9
CCCCCCn1cc[n+](C)c1.N#C[B-](C#N)(C#N)C#N [1-hexyl-3-methylimidazolium tetracyanoborate]	mass density	kg/m3	980.1

Please turn your attention to the following entry.
# compound C=CCn1cc[n+](C)c1.O=S(=O)([N-]S(=O)(=O)C(F)(F)F)C(F)(F)F ; its mass density = 1486

###

settings: 303.15 K; 100 kPa; Liquid; Concentric cylinders viscometry
ATTRIBUTE_MEASURED: viscosity (mPa·s)
Express it in mPa·s; write the number only.

Some solved entries appear below for comparison.
MOLECULE	viscosity [mPa·s]
CCCC[N+]1(C)CCCC1.O=S(=O)([N-]S(=O)(=O)C(F)(F)F)C(F)(F)F	61.87
CCn1cc[n+](C)c1.N#C[B-](C#N)(C#N)C#N [1-ethyl-3-methylimidazolium tetracyanoborate]	15.38
CCCCCCn1cc[n+](C)c1.N#C[B-](C#N)(C#N)C#N [1-hexyl-3-methylimidazolium tetracyanoborate]	38.1

Please turn your attention to the following entry.
# molecule C=CCn1cc[n+](C)c1.O=S(=O)([N-]S(=O)(=O)C(F)(F)F)C(F)(F)F ; its viscosity = 28.08

###

settings: 313.15 K; 100 kPa; Liquid; Concentric cylinders viscometry
Numbers after ± are expanded uncertainties.
viscosity reference

COMPOUND	viscosity
CCn1cc[n+](C)c1.N#C[B-](C#N)(C#N)C#N [1-ethyl-3-methylimidazolium tetracyanoborate]	11.23 ± 0.52 mPa·s
CCCC[N+]1(C)CCCC1.O=S(=O)([N-]S(=O)(=O)C(F)(F)F)C(F)(F)F	41.45 ± 1.9 mPa·s

# compound C=CCn1cc[n+](C)c1.O=S(=O)([N-]S(=O)(=O)C(F)(F)F)C(F)(F)F ; its viscosity = 20.31 ± 0.94 mPa·s

# compound CCCCCCn1cc[n+](C)c1.N#C[B-](C#N)(C#N)C#N [1-hexyl-3-methylimidazolium tetracyanoborate] ; its viscosity = 24.73 ± 1.1 mPa·s

###

settings: 293.15 K; 100 kPa; Liquid; Concentric cylinders viscometry
± gives the expanded uncertainty stated by the source.
viscosity reference

COMPOUND	viscosity
CCn1cc[n+](C)c1.N#C[B-](C#N)(C#N)C#N [1-ethyl-3-methylimidazolium tetracyanoborate]	22.11 ± 1 mPa·s
C=CCn1cc[n+](C)c1.O=S(=O)([N-]S(=O)(=O)C(F)(F)F)C(F)(F)F	40.69 ± 1.9 mPa·s
CCCC[N+]1(C)CCCC1.O=S(=O)([N-]S(=O)(=O)C(F)(F)F)C(F)(F)F	98.53 ± 4.6 mPa·s

# compound CCCCCCn1cc[n+](C)c1.N#C[B-](C#N)(C#N)C#N [1-hexyl-3-methylimidazolium tetracyanoborate] ; its viscosity = 63.69 ± 3 mPa·s
